Data origin, for the record: paper PMC6017062

biological target: isomaltase (α-Glcase2) (Saccharomyces cerevisiae); construct: purchased; assay: Commercial glycosidase inhibition: isomaltase (α-Glcase2); assay type: biochemical; details: mean ± SD, three determinations; competitive; n.i. = no inhibition detected at 1 mM
Sequence (P53051 whole entry): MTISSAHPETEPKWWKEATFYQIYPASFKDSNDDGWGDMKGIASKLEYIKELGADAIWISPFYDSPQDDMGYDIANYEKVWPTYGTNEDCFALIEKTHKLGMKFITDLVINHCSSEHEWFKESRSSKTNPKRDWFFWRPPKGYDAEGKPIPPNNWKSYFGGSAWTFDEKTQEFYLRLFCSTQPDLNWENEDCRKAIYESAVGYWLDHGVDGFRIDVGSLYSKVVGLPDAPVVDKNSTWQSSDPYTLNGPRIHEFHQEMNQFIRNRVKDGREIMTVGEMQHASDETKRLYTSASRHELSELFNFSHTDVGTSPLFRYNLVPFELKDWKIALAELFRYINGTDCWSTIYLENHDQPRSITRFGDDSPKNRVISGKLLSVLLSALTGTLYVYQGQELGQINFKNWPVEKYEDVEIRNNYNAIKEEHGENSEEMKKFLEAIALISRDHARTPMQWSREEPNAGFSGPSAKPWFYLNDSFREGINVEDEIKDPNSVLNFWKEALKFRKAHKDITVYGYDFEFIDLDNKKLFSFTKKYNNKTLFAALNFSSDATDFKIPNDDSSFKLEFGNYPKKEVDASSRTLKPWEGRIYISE
VALUE KIND: Ki α-Glcase2

{"MOLECULE": "OC1CN2C(=Nc3ccccc3)SCC2C(O)C1O (centres unmarked) [Compound 9]", "Ki α-Glcase2": "n.i."}
{"MOLECULE": "OC1CN2C(=Nc3ccccc3)SCC2C(O)C1O (centres unmarked) [Compound 6]", "Ki α-Glcase2": "n.i."}
{"MOLECULE": "CCCCN=C1SCC2C(O)C(O)C(O)CN12 (centres unmarked) [Compound 5]", "Ki α-Glcase2": "n.i."}
{"MOLECULE": "CCCCCCCCN=C1SCC2C(O)C(O)C(O)CN12 (centres unmarked) [Compound 4]", "Ki α-Glcase2": "n.i."}
{"MOLECULE": "CCCCCCCCN=C1SCC2C(O)C(O)C(O)CN12 (centres unmarked) [Compound 7]", "Ki α-Glcase2": "n.i."}

(Q) # get_value(readout='Ki α-Glcase2', item= CCCCNC(=S)N1C[C@H](O)[C@@H](O)[C@H](O)[C@@H]1CO )
(A) n.i.

(Q) Need Ki α-Glcase2, item CCCCN=C1SCC2C(O)C(O)C(O)CN12 (centres unmarked) [Compound 8]
(A) n.i.

(Q) What value of Ki α-Glcase2 has been reported for the following molecule? CCCCCCCCNC(=S)N1C[C@H](O)[C@@H](O)[C@H](O)[C@@H]1CO
(A) n.i.
